Reported half-life at 1 µM by item:
Experiment: Metabolic stability assay, human liver microsomes
Assay type: in vitro ADME
Conditions: human liver microsomes 0.5 mg/mL, 1 µM compound, read-out: Liver microsomal stability (T½ /min) human

These solved cases illustrate the format of a correct answer.
// query half-life at 1 µM value for entry "C=CC(=O)N1CCN(c2nc(OC[C@@H]3CCCN3C)nc3c(F)c(-c4ccc(F)c5sc(N)nc45)c(Cl)cc23)CC1"
> 30 min

Follow-up item: C=CC(=O)N1CC2C(=O)N(C)c3cnc4c(F)c(-c5c(O)cccc5F)c(Cl)cc4c3N2CC1C (single isomer, unassigned) [Comparative Compound 2-1, reference compound]
54 min

Also "C=C(F)C(=O)N1CCN(c2c(C#N)c(OC[C@@H]3CCCN3C)nc3c(F)c(-c4ccc(F)c5sc(N)nc45)c(Cl)cc23)CC1" ?
> 30 min

Continue with "C=CC(=O)N1CCN(c2nc(OC[C@@H]3CCCN3C)nc3c(F)c(-c4ccc(F)c5sc(N)nc45)c(Cl)cc23)C[C@H]1C"
> 30 min

As a next step, examine the compound that follows.
I would be grateful if you could share the reported half-life at 1 µM for "C=CC(=O)N1CCN(c2c(C#N)c(OC[C@@H]3CCCN3C)nc3c(F)c(-c4ccc(F)c5sc(N)nc45)c(Cl)cc23)CC1" .
> 30 min

----------
Below, each entry is listed alongside its reported IC50.
Tested on: MiaPaca-2 cells (pancreatic cancer)
Experiment: Proliferation test method 1 (2D, MTT), MiaPaca-2
Type: cell-based
Settings: Homo sapiens, MIA PaCa-2, 2D, 5-7 days, read-out: IC50/nM proliferation inhibitory activity on MiaPaca-2 cells
Write the value in nM as a bare number.

Field: example entries. Status: answers known.
# IC50 lookup, item C=CC(=O)N1CCN(c2c(C#N)cnc3c(F)c(-c4ccc(F)c5sc(N)nc45)c(Cl)cc23)CC1CC#N (stereo not shown)
390

Query "C=CC(=O)N1CCN(c2c(C#N)c(Cl)nc3c(F)c(-c4ccc(F)c5sc(N)nc45)c(Cl)cc23)CC1" next
23.1

One more compound: "C=CC(=O)N1CCN(c2nc(Cl)nc3c(F)c(-c4ccc(F)c5sc(N)nc45)c(Cl)cc23)CC1"
35

Repeat for the following compound: "C=CC(=O)N1CCN(c2nc(OC[C@@H]3CCCN3C)nc3c(F)c(-c4ccc(F)c5sc(N)nc45)c(Cl)cc23)[C@@H](C)C1"
1.2

Same read-out for "C=C(F)C(=O)N1CCN(c2c(C#N)c(OC[C@@H]3CCCN3C)nc3c(F)c(-c4ccc(F)c5sc(N)nc45)c(Cl)cc23)CC1" ?
0.9

Let's switch to this compound now.
IC50 for "C=CC(=O)N1CCN(c2nc(NC[C@@H]3CCCN3C)nc3c(F)c(-c4ccc(F)c5sc(N)nc45)c(Cl)cc23)CC1" ?
13.2

----------
System: MiaPaca-2 cells (pancreatic cancer)
Experiment: Proliferation test method 1 (2D, MTT), MiaPaca-2
Format: cell-based
Conditions: Homo sapiens, MIA PaCa-2, 2D, 5-7 days, read-out: IC50/nM proliferation inhibitory activity on MiaPaca-2 cells
Source text: […]
IC50 values by entry
Express it in nM; write the number only.

Identify the measured IC50 of C=C(F)C(=O)N1CCN(c2c(C#N)cnc3c(F)c(-c4ccc(F)c5sc(N)nc45)c(Cl)cc23)CC1 [Example 9] for MiaPaca-2 cells (pancreatic cancer).
362

Ok, now C=CC(=O)N1CCN(c2nc(NCCC(=O)N(C)C)nc3c(F)c(-c4ccc(F)c5sc(N)nc45)c(Cl)cc23)CC1 [Example 19]
28

Here is the next molecule: C=CC(=O)N1CCN(c2nc(OC[C@@H]3CCCN3C)nc3c(F)c(-c4ccc(F)c5sc(N)nc45)c(Cl)cc23)CC1CC#N (some centres unmarked) [Example 12]
19.3

Now for the molecule whose IC50 we want.
Lookup: IC50 / MiaPaca-2 cells (pancreatic cancer) / C=C(F)C(=O)N1C[C@@H]2C(=O)N(C)c3cnc4c(F)c(-c5ccc(F)c6sc(N)nc56)c(Cl)cc4c3N2C[C@H]1C [Example 28]
63.2
